Molecular target: His-OsbR (Chromobacterium violaceum ATCC 12472) (UniProt Q7NR79)
Sequence: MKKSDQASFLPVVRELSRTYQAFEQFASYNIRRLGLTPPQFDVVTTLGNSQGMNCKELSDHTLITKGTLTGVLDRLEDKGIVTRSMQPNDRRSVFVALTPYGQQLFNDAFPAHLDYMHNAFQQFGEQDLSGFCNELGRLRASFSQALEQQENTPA
Test: EMSA
Details: EMSA with 32P-labeled PCR probes and reduced His-OsbR; buffer, salt, pH and temperature not given (refers to earlier papers); CHP pretreatment at room …

Residue string	binding
TTGGATCCTGCCGGAGCGGAATGCAACTGGACGATATCGCCGGATTGAGGCAGTCGCTGTGCGATCTGCGCGACCGGCTGCTGCAATGAACCCGTCAGGGTTTTGATAGTTAGATAGTGCACTATTAAATAGCTCATTATTTTAATCGCAACGGCGTCAAGCCAAGGAGAGCCAGATGAACCCTCTGCAAAAAGTACTGTATACCGCCGAAGCCACCGCCTGCAGTAAT (double strand) [ohrA promoter]	binds
ATCGGGATGCCCAGCACCGCGAACATCATCCAGACCATGAAGCAGAGGGTGAAAGCCAGCGTGCTGCTGGCCAGCACGCTGTAGCGTTTGAATGTCGGGGAAGTCATGGCGCCATATCCATGGAGTGGTCATGGCTACCACGATAAGCGACGGCGGCGCGCGCCGATATTCGTCTGTCGCAGGACTGTCAGTCTGCCAACGGACGAGGCGGATTAACCCTTACGGCTGGCGCCGGCTACTCCCAATGGGGGAGAGTCA (double strand) [narK1 promoter]	no binding
CCTCGTAAAAGCGGATGGCGCGGGTGGTGATGTCGAACTCCTGCGCGAGTTCGGTGATGTTGAAAACCTGTTCGCCCATGCGTCTGTCCCTTTATCTTCCCGCTGCGGCCACGCGCGCCACAGTCGGGTGCTTTTGCATTCATTGTCTGTTGACGTTGACGTAAACGTCAAGTTATCGTGATCGAAAGTAGAGCAAACAGTCCAGGAGAAGCAGATGAGCCAGAAAATCGGCGTGGTGGGCGCGGGCACGATGGGCAACGGCATCGCCCAGGTCTTCGCGATGAAGGGTTTCGACG (double strand) [CV_2087 promoter]	binds
CTCGCTGGCCGATCTGGGACGCGGCCCGGTGCGGGCGGCCGCCTGATCGCGGTTTCGCGCCCGCTTGGCGCGGGCGCGTCGCGGTTCCGCATAATAATAAATTGCTTGCAATTAAATAGTGCACTATTTATTATGCGGCCATGGAACAAGAAAACACGTGCCCGCCGCAGGACGCGCTTTTGCGGCTGGACCAGCAACTCTGCTTCGCGCTGTATTCCGCC (double strand) [ohrR promoter]	no binding
GACCAAGTGATAGACGCCGGCACGCTGCGCGCGGTGTACGGCGTGAACGGCCGGGTGGAGCGCTGCACGCAGGGCGTGCCCCACGTGCTGGTGGACGGCCTGGCCGCAGGCTGAGCGCCGCGGCGGGGCGGCGCTCGCCGTCCCGCCCGATTGAAATCTTCACTCCCTCGCAAGAATGCGATTGAAATTGATATTCAATCGCATTTATGATGTCAGCCTCCGCTCAGGAGCCGCCCAGGCGGCCAAAACCAATAACAGGCAGACATCCTCATGACCGAGAAGCTTTAGGCC (double strand) [cbaF promoter]	no binding
GACCATACTAGACAGCTACGCCACCTTCAGCGCCATCGACCGCCACAGCGAAAGCCGCCAGAAACATCCCTTCGTCGCGCAATTGCTGCGCCGCTATCCGCAAATCACCACGCTG (double strand) [CV_0208 coding region]	no binding
